Data provenance: patent US9976134B2

test: Stability assay in 25% TIDE 2X detergent with DTPA (residual Abz-AGLA-Nba protease activity); type: physicochemical; details: 60 min at 32°C; variant residual AGLA activity divided by wild-type residual activity
Quick reference for PI (relative stability), 25% TIDE 2X with DTPA among some molecules
Measured property: PI (relative stability), 25% TIDE 2X with DTPA

1. S065T: single-substitution thermolysin variant (SEQ ID NO:3 numbering) (protein, listed as Geobacillus caldoproteolyticus) ITGTSTVGVGRGVLGDQKNINTTYSTYYYLQDNTRGNGIFTYDAKYRTTLPGSLWADADNQFFATYDAPAVDAHYYAGVTYDYYKNVHNRLSYDGNNAAIRSSVHYSQGYNNAFWNGSQMVYGDGDGQTFIPLSGGIDVVAHELTHAVTDYTAGLIYQNESGAINEAISDIFGTLVEFYANKNPDWEIGEDVYTPGISGDSLRSMSDPAKYGDPDHYSKRYTGTQDNGGVHINSGIINKAAYLISQGGTHYGVSVVGIGRDKLGKIFYRALTQYLTPTSNFSQLRAAAVQSATDLYGSTSQEVASVKQAFDAVGVK :: 1.04
2. I156H: single-substitution thermolysin variant (SEQ ID NO:3 numbering) (protein, listed as Geobacillus caldoproteolyticus) ITGTSTVGVGRGVLGDQKNINTTYSTYYYLQDNTRGNGIFTYDAKYRTTLPGSLWADADNQFFASYDAPAVDAHYYAGVTYDYYKNVHNRLSYDGNNAAIRSSVHYSQGYNNAFWNGSQMVYGDGDGQTFIPLSGGIDVVAHELTHAVTDYTAGLHYQNESGAINEAISDIFGTLVEFYANKNPDWEIGEDVYTPGISGDSLRSMSDPAKYGDPDHYSKRYTGTQDNGGVHINSGIINKAAYLISQGGTHYGVSVVGIGRDKLGKIFYRALTQYLTPTSNFSQLRAAAVQSATDLYGSTSQEVASVKQAFDAVGVK :: 1.21
